From: patent US11203600B2

Reported IC50 values for the following compounds.
experimental-target: GST-hRIPK1 (8-327) (Homo sapiens (Human), UniProt Q13546)
Sequence (Q13546 8-327): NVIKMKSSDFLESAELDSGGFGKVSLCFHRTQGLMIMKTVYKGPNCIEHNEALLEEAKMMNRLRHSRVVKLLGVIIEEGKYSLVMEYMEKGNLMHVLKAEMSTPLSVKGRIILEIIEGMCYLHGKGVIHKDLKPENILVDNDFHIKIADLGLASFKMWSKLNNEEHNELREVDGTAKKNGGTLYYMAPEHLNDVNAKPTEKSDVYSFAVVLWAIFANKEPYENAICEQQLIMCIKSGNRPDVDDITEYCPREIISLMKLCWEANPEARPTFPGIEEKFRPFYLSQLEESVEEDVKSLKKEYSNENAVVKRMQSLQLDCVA
test-summary: Fluorescent Polarization Binding (FP Binding) assay, RIPK1
experimental-setup: 10 nM GST-hRIPK1 (8-327), 5 nM fluorescent-labeled ligand, RT, 30 min, mean of at least two independent experiments
Description: […] After addition of 5 μL of fluorescentlabeled ligand at twice the final concentrations in assay buffer, the plate was incubated at RT for […]. At the end, the binding was measured as FP value with the Envision (PerkinElmer) plate reader using filter for an excitation λ=531 nm FP and an emission λ=595 nm FP (S & P-pol). […] Test compound inhibition was expressed as percent inhibition of internal assay controls. […]

Known results for compounds:
| compound | test-result |
| --- | --- |
| COc1nc(N2CCC(C(=O)N3CCOc4c(C#N)cncc4C3)CC2)ncc1F [Example 118] | 0.1 to 100 nM |
| CCC(C)(C)C(=O)N1Cc2cncc(C#N)c2OC[C@H]1C [Example 75] | 0.1 to 100 nM |
| CC(C)(CC(F)F)C(=O)N1CCOc2c(C#N)cncc2C1 [Example 149] | 100 to 1000 nM |
| CC(C)(C(=O)N1CCOc2c(C#N)cncc2C1)C1CC(F)(F)C1 [Example 84] | 0.1 to 100 nM |

Reported IC50 for N#Cc1cncc2c1OCCN(C(=O)C1(F)CCN(c3cnc4ccccc4n3)CC1)C2 [Example 198] was 100 to 1000 nM
